experiment summary: Aqueous solubility of the salts determined by HPLC
Type: physicochemical
condition set: pH of Table 2 for the aqueous solubility samples (water, 2 h at 20° C.)
Recorded pH by entry
experimental readout: pH

INSERT INTO measurements (molecule, endpoint_value) VALUES
  ('CNc1ncc(-c2ccc3c(=O)c(C(=O)O)cn(C4CC4)c3c2C)cc1C.O=C(O)/C=C\C(=O)O [Maleate]', 5.3),
  ('CNc1ncc(-c2ccc3c(=O)c(C(=O)O)cn(C4CC4)c3c2C)cc1C.CS(=O)(=O)O [Mesylate]', 2.4),
  ('CNc1ncc(-c2ccc3c(=O)c(C(=O)O)cn(C4CC4)c3c2C)cc1C.O=C(O)CC(O)(CC(=O)O)C(=O)O [Citrate]', 2.7),
  ('CNc1ncc(-c2ccc3c(=O)c(C(=O)[O-])cn(C4CC4)c3c2C)cc1C.[K+]', 9.8);

Reference source: patent US8507684B2
